// reported Einf per item
Test system: Mycobacterium tuberculosis Erdman (autoluminescent)
Assay: Einf, fitted maximum growth inhibition of three-drug combination (fraction); higher = stronger maximal inhibition
Settings: in vitro model: butyrate; time point: constant (~7 days, model-specific)
Provide a numeric answer; units are not to be included.

>  <MOLECULE>
COc1nc2ccc(Br)cc2cc1[C@@H](c1ccccc1)[C@@](O)(CCN(C)C)c1cccc2ccccc12 [bedaquiline] + CC(C)/N=c1\cc2n(-c3ccc(Cl)cc3)c3ccccc3nc-2cc1Nc1ccc(Cl)cc1 [clofazimine] + NNC(=O)c1ccncc1 [isoniazid]

>  <STUDY SYSTEM>
Mycobacterium tuberculosis Erdman (autoluminescent)

>  <Einf>
0.945

$$$$

--- query ---
State Einf on Mycobacterium tuberculosis Erdman (autoluminescent). Entry: CC(=O)NC[C@H]1CN(c2ccc(N3CCOCC3)c(F)c2)C(=O)O1 [linezolid] + O=[N+]([O-])c1cn2c(n1)OC[C@@H](OCc1ccc(OC(F)(F)F)cc1)C2 [pretomanid] + CO[C@H]1/C=C/O[C@@]2(C)Oc3c(C)c(O)c4c(O)c(c(/C=N/N5CCN(C6CCCC6)CC5)c(O)c4c3C2=O)NC(=O)/C(C)=C\C=C\[C@H](C)[C@H](O)[C@@H](C)[C@@H](O)[C@@H](C)[C@H](OC(C)=O)[C@@H]1C [rifapentine]
0.91
